molecular target: Retinoic acid receptor beta (Homo sapiens, UniProt P10826); assay type: functional, cell-based; note: assay procedure not described here
Sequence (P10826 whole entry): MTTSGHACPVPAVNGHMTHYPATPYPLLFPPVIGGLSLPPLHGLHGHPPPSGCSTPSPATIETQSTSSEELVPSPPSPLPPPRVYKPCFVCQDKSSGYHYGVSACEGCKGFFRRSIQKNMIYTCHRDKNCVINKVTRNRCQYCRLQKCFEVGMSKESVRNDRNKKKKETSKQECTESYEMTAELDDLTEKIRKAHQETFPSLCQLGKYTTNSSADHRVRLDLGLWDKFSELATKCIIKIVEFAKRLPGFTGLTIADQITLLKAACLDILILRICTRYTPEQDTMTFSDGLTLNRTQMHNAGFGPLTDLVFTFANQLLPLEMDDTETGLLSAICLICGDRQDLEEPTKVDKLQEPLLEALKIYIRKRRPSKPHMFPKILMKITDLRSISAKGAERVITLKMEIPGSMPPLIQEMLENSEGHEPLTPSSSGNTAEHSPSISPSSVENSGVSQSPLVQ
parameterMeasured: AC50

>>> df
                                   compound  reportedmeasurement
0  CNC(=O)c1cc(Oc2ccc(NC(=O)Nc3ccc(Cl)c(C(F)(F)F)c3)c(F)c2)ccn1              > 30 µM
1  CCOc1cc(CC(=O)N[C@@H](CC(C)C)c2ccccc2N2CCCCC2)ccc1C(=O)O [REPAGLINIDE]              > 30 µM
2  CC1(C)S[C@@H]2[C@H](NC(=O)[C@H](N)c3ccc(O)cc3)C(=O)N2[C@H]1C(=O)O                18 µM
3  CC(/C=C1\SC(=S)N(CC(=O)O)C1=O)=C\c1ccccc1              > 30 µM

----------
molecular target: Voltage-dependent L-type calcium channel subunit alpha-1C (Rattus norvegicus); format: functional; note: assay procedure not described here
Sequence (P22002 whole entry): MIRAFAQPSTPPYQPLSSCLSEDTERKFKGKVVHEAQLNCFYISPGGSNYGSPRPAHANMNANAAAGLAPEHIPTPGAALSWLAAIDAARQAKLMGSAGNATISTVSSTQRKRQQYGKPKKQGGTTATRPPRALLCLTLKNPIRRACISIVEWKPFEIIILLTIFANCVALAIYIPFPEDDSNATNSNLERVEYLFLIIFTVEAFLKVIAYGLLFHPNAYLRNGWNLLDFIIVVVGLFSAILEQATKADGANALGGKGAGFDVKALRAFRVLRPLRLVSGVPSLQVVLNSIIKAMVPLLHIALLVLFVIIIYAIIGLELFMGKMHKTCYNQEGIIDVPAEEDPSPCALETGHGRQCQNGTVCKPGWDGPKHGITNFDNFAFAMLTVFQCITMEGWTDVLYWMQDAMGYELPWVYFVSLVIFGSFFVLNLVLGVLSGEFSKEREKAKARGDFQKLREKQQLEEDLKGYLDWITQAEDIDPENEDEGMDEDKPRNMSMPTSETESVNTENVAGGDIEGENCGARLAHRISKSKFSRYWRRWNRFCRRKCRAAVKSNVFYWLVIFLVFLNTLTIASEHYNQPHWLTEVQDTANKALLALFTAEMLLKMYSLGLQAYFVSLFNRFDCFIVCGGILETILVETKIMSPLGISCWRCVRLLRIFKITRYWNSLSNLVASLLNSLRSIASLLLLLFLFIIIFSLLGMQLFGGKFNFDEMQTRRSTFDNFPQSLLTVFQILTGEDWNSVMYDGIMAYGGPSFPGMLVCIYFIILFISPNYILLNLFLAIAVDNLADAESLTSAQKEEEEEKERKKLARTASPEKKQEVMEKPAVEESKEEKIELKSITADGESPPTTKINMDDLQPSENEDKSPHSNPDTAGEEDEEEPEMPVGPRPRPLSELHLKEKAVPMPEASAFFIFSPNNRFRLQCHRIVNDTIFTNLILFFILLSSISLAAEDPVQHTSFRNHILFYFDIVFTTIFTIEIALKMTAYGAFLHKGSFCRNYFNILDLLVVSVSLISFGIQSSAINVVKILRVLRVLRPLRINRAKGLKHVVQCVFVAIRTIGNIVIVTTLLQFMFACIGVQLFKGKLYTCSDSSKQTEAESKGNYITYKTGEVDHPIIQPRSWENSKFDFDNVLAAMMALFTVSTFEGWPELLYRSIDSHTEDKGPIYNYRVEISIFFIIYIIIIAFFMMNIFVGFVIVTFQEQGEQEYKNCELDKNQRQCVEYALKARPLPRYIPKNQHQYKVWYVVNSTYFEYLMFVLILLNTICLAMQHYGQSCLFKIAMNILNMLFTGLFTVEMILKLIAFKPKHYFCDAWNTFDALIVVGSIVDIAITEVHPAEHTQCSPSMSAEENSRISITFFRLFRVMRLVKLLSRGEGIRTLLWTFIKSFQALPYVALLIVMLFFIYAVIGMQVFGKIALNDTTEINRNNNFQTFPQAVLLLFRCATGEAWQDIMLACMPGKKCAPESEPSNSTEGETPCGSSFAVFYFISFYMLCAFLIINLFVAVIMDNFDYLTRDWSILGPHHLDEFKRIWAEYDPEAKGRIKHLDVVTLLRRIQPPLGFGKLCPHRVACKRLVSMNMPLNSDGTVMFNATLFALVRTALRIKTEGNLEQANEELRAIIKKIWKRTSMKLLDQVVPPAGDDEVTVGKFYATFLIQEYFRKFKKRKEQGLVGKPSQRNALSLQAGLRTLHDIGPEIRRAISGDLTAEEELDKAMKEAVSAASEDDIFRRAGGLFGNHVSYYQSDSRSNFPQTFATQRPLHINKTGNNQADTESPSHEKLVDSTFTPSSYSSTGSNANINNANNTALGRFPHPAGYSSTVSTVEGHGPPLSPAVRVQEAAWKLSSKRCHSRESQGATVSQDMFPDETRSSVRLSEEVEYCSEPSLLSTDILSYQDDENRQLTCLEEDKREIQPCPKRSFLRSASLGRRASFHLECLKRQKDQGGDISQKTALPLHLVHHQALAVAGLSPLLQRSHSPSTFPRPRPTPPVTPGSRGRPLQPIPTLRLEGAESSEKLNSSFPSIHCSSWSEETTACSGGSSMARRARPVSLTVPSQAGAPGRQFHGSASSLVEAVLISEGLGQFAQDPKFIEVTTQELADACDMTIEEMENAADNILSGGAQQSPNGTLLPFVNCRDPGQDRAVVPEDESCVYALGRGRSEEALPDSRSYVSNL
parameterMeasured: AC50

>>> df
                                   molecule  reportedmeasurement
0  CC(CCc1ccccc1)NC(C)C(O)c1ccc(O)cc1 (centres undefined)              > 10 µM
1  CC#CCn1c(N2CCC[C@@H](N)C2)nc2c1c(=O)n(Cc1nc(C)c3ccccc3n1)c(=O)n2C              > 10 µM
2  CC[N+]1(C)CCCC(OC(=O)C(O)(c2ccccc2)c2ccccc2)C1 (centres undefined) [PIPENZOLATE]              > 30 µM
3  Cc1cnc(NC(=O)C2=C(O)c3ccccc3S(=O)(=O)N2C)s1              > 10 µM
4                    CC(C)C[C@H](CN)CC(=O)O              > 30 µM
5  C[C@]12CC[C@H](O)CC1=CC[C@@H]1[C@@H]2CC[C@]2(C)C(c3cccnc3)=CC[C@@H]12              > 10 µM
6       COc1cc(OC)c(C(=O)CCCN2CCCC2)c(OC)c1              > 30 µM
7  CCCCCCOC(=O)CCC(=O)CN [HEXAMINOLEVULINATE]              > 30 µM
8  O=C(Nc1nc(-c2cc(Cl)cs2)c(N2CCN(C3CCCCC3)CC2)s1)c1cnc(N2CCC(C(=O)O)CC2)c(Cl)c1              > 10 µM

----------
biological target: Mu-type opioid receptor (Homo sapiens, UniProt P35372); assay: biochemical; assay type: functional; note: assay procedure not described here
Sequence (P35372 whole entry): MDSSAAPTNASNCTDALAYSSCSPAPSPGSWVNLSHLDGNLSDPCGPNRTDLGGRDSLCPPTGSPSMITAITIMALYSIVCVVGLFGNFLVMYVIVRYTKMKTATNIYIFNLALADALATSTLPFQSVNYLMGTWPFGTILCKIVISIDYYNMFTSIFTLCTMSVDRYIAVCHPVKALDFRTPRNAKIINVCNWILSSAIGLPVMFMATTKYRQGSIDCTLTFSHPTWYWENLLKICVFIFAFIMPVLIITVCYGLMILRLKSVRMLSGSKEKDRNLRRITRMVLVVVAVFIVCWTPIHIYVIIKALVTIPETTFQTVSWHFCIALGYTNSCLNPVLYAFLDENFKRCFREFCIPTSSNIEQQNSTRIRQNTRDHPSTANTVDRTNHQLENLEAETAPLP
AC50 listing for selected molecules.
parameterMeasured: AC50

molecule	reportedMeasurement
CC[C@@H](CO)NC(=O)[C@@H]1C=C2c3cccc4[nH]cc(c34)C[C@H]2N(C)C1	> 30 µM
COc1cc2c(Nc3ccc(Br)cc3F)ncnc2cc1OCC1CCN(C)CC1	> 30 µM
CC1(C)S[C@@H]2[C@H](NC(=O)[C@H](N)c3ccc(O)cc3)C(=O)N2[C@H]1C(=O)O	> 30 µM
CCCOC(C(=O)OC1CCN(C)CC1)(c1ccccc1)c1ccccc1	3.6 µM
CN(C)c1cc(CNCC(C)(C)C)c(O)c2c1C[C@H]1C[C@H]3[C@H](N(C)C)C(O)=C(C(N)=O)C(=O)[C@@]3(O)C(O)=C1C2=O	> 30 µM
CCCCCCOC(=O)CCC(=O)CN [HEXAMINOLEVULINATE]	> 30 µM
O=C(O)c1ccccc1Nc1cccc(C(F)(F)F)c1	> 30 µM
COc1ccc(/C=C/C(=O)Nc2ccccc2C(=O)O)cc1OC	> 30 µM
CO/N=C(\C(=O)N[C@@H]1C(=O)N2C(C(=O)O)=C(COC(N)=O)CS[C@H]12)c1ccco1	> 30 µM
CCN(CC)C(=O)C1(c2ccccc2)CC1CN (configuration not stated)	> 30 µM
CC(=O)O[C@H]1C[C@@H]2CC[C@@H]3[C@H](CC[C@@]4(C)[C@H]3C[C@H]([N+]3(C)CCCCC3)[C@@H]4OC(C)=O)[C@@]2(C)C[C@@H]1[N+]1(C)CCCCC1	> 30 µM
N#C[C@@H]1CCCN1C(=O)CNC12CC3CC(CC(O)(C3)C1)C2	> 30 µM
N=C(N)c1ccc2cc(OC(=O)c3ccc(N=C(N)N)cc3)ccc2c1	> 30 µM
N#Cc1ccccc1-c1cc(-c2ccccn2)cn(-c2ccccc2)c1=O	> 30 µM
CCCN(CC)C(CC)C(=O)Nc1c(C)cccc1C (configuration not stated)	> 30 µM
CO/N=C(\C(=O)N[C@@H]1C(=O)N2C(C(=O)[O-])=C(C[n+]3cccc4c3CCC4)CS[C@H]12)c1csc(N)n1	> 30 µM
Nc1nc2c(c(=O)[nH]1)N(C=O)C(CNc1ccc(C(=O)N[C@@H](CCC(=O)O)C(=O)O)cc1)CN2 (some centres not stated)	> 30 µM

----------
Biological target: B2 bradykinin receptor (Homo sapiens, UniProt P30411); note: assay procedure not described here
Sequence (P30411 whole entry): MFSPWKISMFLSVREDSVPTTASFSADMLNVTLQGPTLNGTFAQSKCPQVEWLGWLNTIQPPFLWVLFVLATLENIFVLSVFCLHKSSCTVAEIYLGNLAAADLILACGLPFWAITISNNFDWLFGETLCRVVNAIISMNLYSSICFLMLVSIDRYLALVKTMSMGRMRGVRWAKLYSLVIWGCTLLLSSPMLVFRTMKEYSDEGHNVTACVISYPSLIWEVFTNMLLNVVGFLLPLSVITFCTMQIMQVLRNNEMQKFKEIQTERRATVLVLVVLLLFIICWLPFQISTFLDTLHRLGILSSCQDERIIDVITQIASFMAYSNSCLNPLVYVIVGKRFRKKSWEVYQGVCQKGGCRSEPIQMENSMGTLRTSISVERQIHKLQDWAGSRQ
The following compounds are listed with their measured AC50 values.
parameterMeasured: AC50

                                    compound  reportedmeasurement
 0                  O=C(O)c1ccccc1OP(=O)(O)O              > 30 µM
 1  COc1cccc(N(C)C(=S)Oc2ccc3c(c2)CCCC3)n1 [LIRANAFTATE]              > 30 µM
 2  C=CC1=C(C(=O)O)N2C(=O)[C@@H](NC(=O)/C(=N\OCC(=O)O)c3csc(N)n3)[C@H]2SC1              > 30 µM
 3       CC(C)(C)NC[C@H](O)COc1nsnc1N1CCOCC1              > 30 µM
 4  C[C@@H]1CCC[C@H](C)N1NC(=O)c1ccc(Cl)c(S(N)(=O)=O)c1 [CLOPAMIDE]              > 30 µM
 5  COc1c(O[C@@H]2O[C@H](CO)[C@@H](O)[C@H](O)[C@H]2O)cc2c(c1OC)-c1ccc(SC)c(=O)cc1[C@@H](NC(C)=O)CC2 [THIOCOLCHICOSIDE]              > 30 µM
 6  CC(=O)c1ccc2c(c1)N(CCCN1CCC(CCO)CC1)c1ccccc1S2              > 30 µM
 7              Nc1nc(O)c2ncn(COC(CO)CO)c2n1              > 30 µM
 8  NS(=O)(=O)c1cc(C2(O)NC(=O)c3ccccc32)ccc1Cl (stereo not drawn)              > 10 µM
 9            CNCC[C@@H](Oc1ccccc1C)c1ccccc1              > 30 µM
10  Cc1cccc(N(C)C(=S)Oc2ccc3ccccc3c2)c1 [TOLNAFTATE]              > 10 µM
11              NCCCC(O)(P(=O)(O)O)P(=O)(O)O              > 30 µM
12  NS(=O)(=O)c1cc2c(cc1C(F)(F)F)NC(Cc1ccccc1)NS2(=O)=O (stereo not drawn) [BENDROFLUMETHIAZIDE]              > 10 µM
13  COC(=O)N[C@@H](C)CNc1nccc(-c2cn(C(C)C)nc2-c2cc(Cl)cc(NS(C)(=O)=O)c2F)n1              > 30 µM
14  CN(c1nccc(=O)[nH]1)C1CCN(c2nc3ccccc3n2Cc2ccc(F)cc2)CC1              > 30 µM
15  Cc1cnc(NC(=O)C2=C(O)c3ccccc3S(=O)(=O)N2C)s1              > 30 µM
16  Nc1nc(F)nc2c1ncn2[C@@H]1O[C@H](COP(=O)(O)O)[C@@H](O)[C@@H]1O [FLUDARABINE PHOSPHATE]              > 30 µM
17  CO/N=C(\C(=O)N[C@@H]1C(=O)N2C(C(=O)O)=C(COC(N)=O)CS[C@H]12)c1ccco1              > 30 µM
